biological target: UniProt:Q8TDV5; assay: cAMP accumulation assay in CHO-K1 cells stably expressing hGPR119; conditions: cAMP HTRF, 60 minutes
Sequence (Q8TDV5 whole entry): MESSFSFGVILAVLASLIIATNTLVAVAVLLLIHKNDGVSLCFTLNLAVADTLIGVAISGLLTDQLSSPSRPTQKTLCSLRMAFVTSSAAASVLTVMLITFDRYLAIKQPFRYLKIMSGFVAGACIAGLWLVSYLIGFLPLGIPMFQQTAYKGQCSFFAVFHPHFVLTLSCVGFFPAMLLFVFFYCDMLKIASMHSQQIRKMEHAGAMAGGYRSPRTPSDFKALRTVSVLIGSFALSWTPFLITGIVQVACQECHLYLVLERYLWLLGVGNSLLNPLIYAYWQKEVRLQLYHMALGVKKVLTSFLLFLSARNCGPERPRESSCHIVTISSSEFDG
MEASURE: EC50

Item: CCCc1cnc(N2CCC(CCCOc3cc(F)c(CC(=O)N4CC(CNCCNC(=O)NC(CO)(CO)CO)C4)c(F)c3)CC2)nc1 | EC50: 0.1 to 1 µM

Item: O=C(Cc1ccc(OCCCC2CCN(c3ncc(Cl)cn3)CC2)cc1F)N1CC(CCNCC(CO)CO)C1 | EC50: ≤ 0.1 µM

Item: CCc1cnc(N2CCC(CCCOc3cc(F)c(CC(=O)N4CC(CNCCNC(=O)NC(CO)(CO)CO)C4)c(F)c3)CC2)nc1 | EC50: ≤ 0.1 µM

Item: NCCOCCOCCNCC1CN(C(=O)Cc2ccc(OCCCC3CCN(c4ncc(Cl)cn4)CC3)cc2F)C1 | EC50: 0.1 to 1 µM

Item: CCc1cnc(N2CCC(CCCOc3ccc(CC(=O)N4CC(CNCC(CO)CO)C4)c(F)c3)CC2)nc1 | EC50: 0.1 to 1 µM

Item: O=C(NCC(O)(CO)CO)C1CN(C(=O)Cc2ccc(OCCCC3CCN(c4ncc(Cl)cn4)CC3)cc2F)C1 | EC50: ≤ 0.1 µM

Item: O=C(NCCCCCCS(=O)(=O)O)C1CN(C(=O)Cc2ccc(OCCCC3CCN(c4ncc(Cl)cn4)CC3)cc2F)C1 | EC50: 0.1 to 1 µM

Item: O=C(NC(CO)(CO)CO)C1CN(C(=O)Cc2ccc(OCCCC3CCN(c4ncc(Cl)cn4)CC3)cc2F)C1 | EC50: ≤ 0.1 µM

Values were extracted from patent US20260191858A1.
